Measured values drawn from ChEMBL document CHEMBL1140829 for this set.

- tested_on: 5-hydroxytryptamine receptor 2A (Homo sapiens)
- Sequence (P28223 whole entry): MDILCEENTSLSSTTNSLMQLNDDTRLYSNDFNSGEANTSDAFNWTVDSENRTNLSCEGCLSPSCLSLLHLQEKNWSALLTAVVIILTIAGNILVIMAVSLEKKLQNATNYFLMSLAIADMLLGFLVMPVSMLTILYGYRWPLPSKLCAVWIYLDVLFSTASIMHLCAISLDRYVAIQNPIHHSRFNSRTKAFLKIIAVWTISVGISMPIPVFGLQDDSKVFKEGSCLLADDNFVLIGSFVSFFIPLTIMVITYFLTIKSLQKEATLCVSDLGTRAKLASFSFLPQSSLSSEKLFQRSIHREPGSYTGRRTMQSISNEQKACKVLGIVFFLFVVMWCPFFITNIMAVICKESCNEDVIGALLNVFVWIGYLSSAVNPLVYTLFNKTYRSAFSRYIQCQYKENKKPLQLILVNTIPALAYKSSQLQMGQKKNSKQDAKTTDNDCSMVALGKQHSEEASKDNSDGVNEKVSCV
quantity_kind: Ki (nM)

1 = CCCC(=O)NC1CCc2ccc(CCN3CCN(c4nsc5ccccc45)CC3)cc21 (stereo not drawn)
2 = O=C(NC1CCc2ccc(CCN3CCN(c4nsc5ccccc45)CC3)cc21)c1ccc(F)cc1 (stereo not drawn)
Exam item: Hey, which is lower on measured Ki, 1 or 2 ? Your choice should be expressed through its label.
Marked response: 1

* * *

- tested_on: Alpha-1A adrenergic receptor (Rattus norvegicus)
- Sequence (P43140 whole entry): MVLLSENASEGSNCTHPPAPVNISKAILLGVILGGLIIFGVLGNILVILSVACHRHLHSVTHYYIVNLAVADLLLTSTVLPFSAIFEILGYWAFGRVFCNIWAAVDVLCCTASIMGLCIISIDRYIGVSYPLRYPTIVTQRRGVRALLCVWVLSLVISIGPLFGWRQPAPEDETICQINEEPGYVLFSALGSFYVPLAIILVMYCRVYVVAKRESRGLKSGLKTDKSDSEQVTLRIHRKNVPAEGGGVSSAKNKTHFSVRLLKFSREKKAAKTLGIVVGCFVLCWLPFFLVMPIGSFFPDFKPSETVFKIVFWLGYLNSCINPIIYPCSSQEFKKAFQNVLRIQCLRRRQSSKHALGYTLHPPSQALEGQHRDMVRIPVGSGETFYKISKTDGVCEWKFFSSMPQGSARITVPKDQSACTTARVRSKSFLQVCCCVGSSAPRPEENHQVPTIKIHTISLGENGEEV
quantity_kind: Ki (nM)

I = CC(=O)NC1CCc2cc(CCN3CCN(c4nsc5ccccc45)CC3)ccc21 (stereo not drawn)
II = CC(=O)NC1CCc2ccc(CCN3CCN(c4nsc5ccccc45)CC3)cc21 (stereo not drawn)
III = O=C(NC1CCc2cc(CCN3CCN(c4nsc5ccccc45)CC3)ccc21)c1ccc(F)cc1 (stereo not drawn)
Exam item: Please give the order of these compounds when sorted by Ki, largest value leading. Answer with the labels in sequence, matching the requested order.
Marked response: III, I, II
